// data source = ChEMBL document CHEMBL3228010

- Tested on: L1210
- test_name: Antitumor activity against mouse L1210 cells […] in ip dosed C3H X DBA2 F1 hybrid mouse on day 0 and dosed once daily on days 1 to 5 assessed as increase in life span relative to control
- Type: functional
measured_attribute: D40 (mg/kg)
Respond numerically; units are mg/kg and should not be typed.

Query Br.C/C(=N\NC(=N)N)c1ccc(NC(=O)c2ccc(Nc3cc[n+](C)c4ccc(N)cc34)cc2N)cc1.[Br-] yields D40 of 1.7

Query CC[n+]1cccc2ccc(NC(=O)c3ccc(NC(=O)c4ccc(C(=O)Nc5ccc6ccc[n+](CC)c6c5)cc4)cc3)cc21.Cc1ccc(S(=O)(=O)[O-])cc1.Cc1ccc(S(=O)(=O)[O-])cc1 yields D40 of 12

Please examine the following record next.
Query C[n+]1cccc(NC(=O)c2ccc(NC(=O)c3ccc(C(=O)Nc4ccc(Nc5cc[n+](C)c6ccc(N)cc56)cc4)cc3)cc2)c1.Cc1ccc(S(=O)(=O)[O-])cc1.Cc1ccc(S(=O)(=O)[O-])cc1 yields D40 of 22.1

---

Below, each of the compounds is paired with its reported C50 value.
- test_name: Displacement of ethidium from poly[d(A-T)]-poly[d(A-T)] DNA by fluorimetric method

Query COc1ccc2c(c1)c(Nc1ccc(C(=O)Nc3ccc(Nc4cc[n+](C)cc4)cc3)cc1)cc[n+]2C.Cc1ccc(S(=O)(=O)[O-])cc1.Cc1ccc(S(=O)(=O)[O-])cc1 yields C50 of 0.19 µM

Query C[n+]1cccc(NC(=O)c2ccc(NC(=O)c3ccc(C(=O)Nc4ccc(Nc5cc[n+](C)c6ccc(N)cc56)cc4)cc3)cc2)c1.Cc1ccc(S(=O)(=O)[O-])cc1.Cc1ccc(S(=O)(=O)[O-])cc1 yields C50 of 0.22 µM

Query C[n+]1ccc(Nc2ccc(C(=O)Nc3ccc(Nc4cc[n+](C)c5ccc(N)cc45)cc3)c(N)c2)cc1.[Br-].[Br-] yields C50 of 0.15 µM

Next:
Query C[n+]1ccc(-c2ccc(-c3ccc(-c4ccc(/N=N/Nc5ccc(C(=O)Nc6ccc(-c7ccc(-c8ccc(-c9cc[n+](C)cc9)cc8)cc7)cc6)cc5)cc4)cc3)cc2)cc1.Cc1ccc(S(=O)(=O)[O-])cc1.Cc1ccc(S(=O)(=O)[O-])cc1 yields C50 of 0.1 µM

Query C[n+]1ccc(Nc2ccc(NC(=O)c3ccc(Nc4c(-c5ccccc5)c[n+](C)c5ccc(N)cc45)cc3)cc2)cc1.[Br-].[Br-] yields C50 of 0.15 µM

Query C[n+]1cccc2ccc(NC(=O)c3ccc(NC(=O)c4ccc(C(=O)Nc5ccc6ccc[n+](C)c6c5)cc4)cc3)cc21.Cc1ccc(S(=O)(=O)[O-])cc1.Cc1ccc(S(=O)(=O)[O-])cc1 yields C50 of 0.16 µM

Query C[n+]1ccc(Nc2ccc(C(=O)Nc3ccc(Nc4cc[n+](C)c5cc(N)ccc45)cc3)c(N)c2)cc1.Cc1ccc(S(=O)(=O)[O-])cc1.Cc1ccc(S(=O)(=O)[O-])cc1 yields C50 of 0.14 µM

Query CC[n+]1cccc(NC(=O)c2ccc(NC(=O)c3ccc(C(=O)Nc4ccc5c(ccc[n+]5CC)c4)cc3)cc2)c1.Cc1ccc(S(=O)(=O)[O-])cc1.Cc1ccc(S(=O)(=O)[O-])cc1 yields C50 of 0.62 µM

Query CC[n+]1cccc(NC(=O)c2ccc(NC(=O)c3ccc(C(=O)Nc4ccc(C(=O)Nc5ccc[n+](CC)c5)cc4)cc3)cc2)c1.Cc1ccc(S(=O)(=O)[O-])cc1.Cc1ccc(S(=O)(=O)[O-])cc1 yields C50 of 0.4 µM

Query C/C(=N\NC(=N)N)c1ccc(NC(=O)Nc2ccc(Nc3c4ccccc4[n+](C)c4cc(N)ccc34)cc2)cc1.Cl.[Cl-] yields C50 of 0.09 µM
